Task for the reader: assign each of the following compounds its reported LC retention time.
Experiment: RP, Merck Supelco Ascentis Express C18, 100 × 2.1 mm, 2 µm, 40 °C, 0.35 mL/min, estimated dead time 0.63 min; A: water + 0.1% formic acid, pH 3; B: acetonitrile + 0.1% formic acid, pH 3; gradient (min/%B) 0/5 2/5 17/99.9 20/99.9
Settings: stereoisomer not certain
Answers are plain numbers, in min.

>>> df
                                   compound       readout_kind  test_value
0  O=C(O)C(O)Cc1ccc(O)cc1 (stereo not given) [HYDROXYPHENYLLACTATE]  LC retention time        4.18
1  Cc1cn(C2CC(O)C(CO)O2)c(=O)[nH]c1=O (stereo not given) [THYMIDINE]  LC retention time        1.19
2  Nc1ccccc1S(=O)(=O)O [ANILINE-2-SULFONATE]  LC retention time        0.95
3  CSCC1OC(n2cnc3c(N)ncnc32)C(O)C1O (stereo not given) [METHYLTHIOADENOSINE]  LC retention time        2.58
4    COC(=O)CCCC(=O)O [MONOMETHYLGLUTARATE]  LC retention time        2.33

Count: 3. Required value per item: LC retention time.
1. CCC=CCC=CCC=CCC=CCC=CCCCC(=O)O [EICOSAPENTAENOATE]
2. CC(CCC(=O)O)C1CCC2C3C(O)CC4CC(O)CCC4(C)C3CC(O)C12C (stereo not given) [CHOLATE]
3. Cn1c(=O)[nH]c2ncn(C)c2c1=O [PARAXANTHINE]

14.2
9.14
2.47

Count: 2. Required value per item: LC retention time.
1. O=C(O)c1ccccc1 [BENZOATE]
2. O=C(O)C(=O)Cc1c[nH]c2ccccc12 [INDOLE-3-PYRUVATE]

1. 5.55
2. 5.84
